Origin of values: patent US20090035322A1

Reported Percent of Binding to Mutant Human CD20 values for a set of binders
target under test: T1, mutant human CD20 #5 (P172S) (human, UniProt P11836 1-297)
T1 construct: Stably expressed on MG87 cells
T1 sequence: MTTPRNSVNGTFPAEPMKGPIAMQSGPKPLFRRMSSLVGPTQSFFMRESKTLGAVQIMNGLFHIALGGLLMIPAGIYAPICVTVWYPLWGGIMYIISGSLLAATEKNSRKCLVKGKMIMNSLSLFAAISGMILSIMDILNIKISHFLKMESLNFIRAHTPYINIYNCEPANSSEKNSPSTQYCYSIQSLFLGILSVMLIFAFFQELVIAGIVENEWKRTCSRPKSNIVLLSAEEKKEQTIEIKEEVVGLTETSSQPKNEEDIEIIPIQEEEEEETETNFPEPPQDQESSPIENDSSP
method notes: FACS, mutant-hCD20 MG87 cells; 100%=best antibody

Past entries and their recorded results:
[[record]]
binder = "6B9-4 (antibody, V domains shown, Fully human IgG, constant region not specified; also called 6B9-4N) VH: EEQLVESGGDLVQPGRSLRLSCAASGFTFHDYTMHWVRQAPGKGLEWVSGISWNSGSIGYADSVKGRFTISRDNAKNSLYLQMNSLRIEDTALYYCAKDPSYGSGSYYYYYGMDVWGQGTTVTVSS VL: EIVLTQSPATLSLSPGERATLSCRASQSVSSYLVWYQQRPGQAPRLLIYEASNRATGIPARFSGSGSGTDFTLTISSLESEDFAVYYCQQRSNWPLTFGGGTKVEIK"
parameter_measured = "Percent of Binding to Mutant Human CD20"
result = "67%"

[[record]]
binder = "8G6-5 (antibody, V domains shown, Fully human IgG, constant region not specified; also called 8G6-5N) VH: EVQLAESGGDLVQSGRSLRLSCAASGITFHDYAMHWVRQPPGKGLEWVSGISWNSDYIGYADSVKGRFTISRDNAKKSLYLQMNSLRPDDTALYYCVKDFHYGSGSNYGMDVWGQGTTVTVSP VL: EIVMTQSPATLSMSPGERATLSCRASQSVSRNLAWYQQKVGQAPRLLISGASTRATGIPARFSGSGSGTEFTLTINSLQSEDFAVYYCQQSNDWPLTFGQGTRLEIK"
parameter_measured = "Percent of Binding to Mutant Human CD20"
result = "76%"

[[record]]
binder = "9D4-7 (antibody, V domains shown, Fully human IgG, constant region not specified; also called 9D4-7N) VH: EVQLVESGGGLVQPGRSLRLSCAASGFTFYDYAMHWVRQAPGKGLEWVSGISWNSDTIGYADSVKGRFTISRDNAKNSLYLQMNSLRAEDTALYYCTKDGSYGHFYSGLDVWGQGTTVTVSS VL: EIVLTQSPATLSLSPGERATLSCRASQSVSSYLAWYQQKPGQAPRLLIYVASNRATGIPARFSGSGSGTDFTLTISSLEPDDFAVYYCQQRYYWPLTFGGGTKVEIK"
parameter_measured = "Percent of Binding to Mutant Human CD20"
result = "66%"


Could you now consider this next binder?
Input line: Tell me its Percent of Binding to Mutant Human CD20 given 6F6-1 (antibody, V domains shown, Fully human IgG, constant region not specified; also called 6F6-1N) VH: AVQLVESGGGLVQPGRSLRLSCAASGFTFRDYAMHWVRQGPGKGLEWVSGISWNTDYIGYADSVKGRFTISRDNAKNSLYLQMNSLRPEDTALYYCAKDARYGRDNYYGMDVWGQGTTVTVSS VL: EIVMTQSPATLSVSPGERATLSCRASQSVSHNLAWYQQKPGQAPRLLIYGAYTRATGIPDRFSGTGSGTEFTLTISSLQSEDFAVFYCQQYNNWPLTFGGGTKVEIK as the entry.
Output line: 100%
